This collection of values is drawn from paper PMC5941314.

Molecular target: T1, Ube2N (UniProt P61088 1-152)
T1 construct: Ube2N, ubiquitin-conjugating enzyme E2 N; also called wtUbe2N; source: E. coli Rossetta2 (DE3), purified (ion exchange, SEC)
T1 sequence (looked up): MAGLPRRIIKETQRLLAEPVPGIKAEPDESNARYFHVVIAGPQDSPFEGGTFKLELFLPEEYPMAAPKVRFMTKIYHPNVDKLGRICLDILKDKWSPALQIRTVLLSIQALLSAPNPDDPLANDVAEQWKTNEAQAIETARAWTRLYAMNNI
Assay: ITC; ZNRF1 construct (10–30 µM) in the cell, E2 in the syringe; 25°C; 20 mM sodium phosphate pH 8.0, 150 mM NaCl; single site model
Settings: both partners purified
measurement.label: pKd
Note on units: pKd is unitless, being -log10 of a concentration expressed in mol/L.

ZNRF1^CTD (C-terminal domain of ZNRF1, residues 139–227) (domain or fragment, UniProt Q8ND25 139-227, looked up, ZNRF1, RING E3 ubiquitin ligase, residues 139-227 of the full-length protein (ZnF and RING domains); also called ZNRF1 C-terminal domain; ZRNF1^CTD; source: E. coli Rossetta2 (DE3), purified (HisTrap, SEC)) SHSGFKCPICSKSVASDEMEMHFIMCLSKPRLSYNDDVLTKDAGECVICLEELLQGDTIARLPCLCIYHKSCIDSWFEVNRSCPEHPAD; 7.41
ZNRF1^RING (residues 166–227) (domain or fragment, UniProt Q8ND25 166-227, looked up, ZNRF1, RING E3 ubiquitin ligase, residues 166-227 (RING domain); also called RING domain of ZNRF1; source: E. coli Rossetta2 (DE3), purified (HisTrap, SEC)) SKPRLSYNDDVLTKDAGECVICLEELLQGDTIARLPCLCIYHKSCIDSWFEVNRSCPEHPAD; 7.31

Quick one: pKd of ZNRF1^(CTD, E183A) (domain or fragment, UniProt Q8ND25 139-227, looked up, ZNRF1, RING E3 ubiquitin ligase, residues 139-227 with E183A; also called ZRNF1^CTD,E183A; E183A mutant; source: E. coli Rossetta2 (DE3), purified) SHSGFKCPICSKSVASDEMEMHFIMCLSKPRLSYNDDVLTKDAGACVICLEELLQGDTIARLPCLCIYHKSCIDSWFEVNRSCPEHPAD ?
6.34
